Task for the reader: assign each of the following compounds its reported inhibition.
# system under test: Angiotensin II receptor (Rattus norvegicus) (UniProt P29089+P25095+P35351)
# assay procedure: Percent inhibition of the Angiotensin-II (0.1ug/kg, iv) induced pressor response after 3 hours of administration (3 mg/kg po) in rats
# Type: functional, organism-based
Provide only the numeric value, understood in %.

Lab note: measured inhibition of CCCSc1nc2cccc(C(=O)O)c2n1Cc1ccc(-c2ccccc2-c2nn[nH]n2)cc1 was 88

Lab note: measured inhibition of O=C(O)c1cccc2nc(C3CC3)n(Cc3ccc(-c4ccccc4-c4nn[nH]n4)cc3)c12 was 92

Lab note: measured inhibition of CCCc1nc2cccc(C(=O)O)c2n1Cc1ccc(-c2ccccc2-c2nn[nH]n2)cc1 was 90

* * *

Task for the reader: assign each of the following compounds its reported pIC50.
# system under test: Type-1 angiotensin II receptor (Bos taurus)
# Sequence (P25104 whole entry): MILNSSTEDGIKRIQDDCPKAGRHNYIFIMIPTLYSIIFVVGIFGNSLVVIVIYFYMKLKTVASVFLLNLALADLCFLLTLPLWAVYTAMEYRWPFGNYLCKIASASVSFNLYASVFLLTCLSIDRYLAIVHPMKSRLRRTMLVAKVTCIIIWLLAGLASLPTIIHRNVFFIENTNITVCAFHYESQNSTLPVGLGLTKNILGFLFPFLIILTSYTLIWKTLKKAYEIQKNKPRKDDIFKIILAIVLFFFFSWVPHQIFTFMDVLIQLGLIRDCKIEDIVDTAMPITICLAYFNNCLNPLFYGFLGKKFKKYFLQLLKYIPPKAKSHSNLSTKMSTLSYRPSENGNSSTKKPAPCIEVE
pIC50: −log10 of the molar value.

Lab note: measured pIC50 of CC[S+]([O-])c1nc2cccc(C(=O)OC)c2n1Cc1ccc(-c2ccccc2-c2nn[nH]n2)cc1 (stereo not drawn) was < 6.00

Lab note: measured pIC50 of O=C(O)c1cccc2nc(N3CCCCC3)n(Cc3ccc(-c4ccccc4-c4nnn[nH]4)cc3)c12 was < 6.00

Lab note: measured pIC50 of O=C(O)c1cccc2nc(N3CCOCC3)n(Cc3ccc(-c4ccccc4-c4nnn[nH]4)cc3)c12 was < 6.00

* * *

# system under test: Type-1 angiotensin II receptor (Bos taurus, UniProt P25104)
# assay procedure: Inhibition of specific binding of [125 I ] Angiotensin-II (0.2 nM) to bovine adrenal cortex
# Assay type: tissue-based
pIC50: −log10 of the molar value.
Would you mind labelling by pIC50? At or over 7 is met, under is not met.

In: Record CCc1nc2cccc(C(=O)O)c2n1Cc1ccc(-c2ccccc2-c2nnn[nH]2)cc1 ; criterion: pIC50 no lower than 7. Met?
Out: met

In: Record COC(=O)c1cccc2nc(OCC(F)(F)F)n(Cc3ccc(-c4ccccc4-c4nnn[nH]4)cc3)c12 ; criterion: pIC50 no lower than 7. Met?
Out: not met

In: Record COCc1nc2cccc(C(=O)O)c2n1Cc1ccc(-c2ccccc2-c2nn[nH]n2)cc1 ; criterion: pIC50 no lower than 7. Met?
Out: not met

* * *

Task for the reader: assign each of the following compounds its reported IC50.
# system under test: Type-1 angiotensin II receptor (Bos taurus, UniProt P25104)
# Sequence (P25104 whole entry): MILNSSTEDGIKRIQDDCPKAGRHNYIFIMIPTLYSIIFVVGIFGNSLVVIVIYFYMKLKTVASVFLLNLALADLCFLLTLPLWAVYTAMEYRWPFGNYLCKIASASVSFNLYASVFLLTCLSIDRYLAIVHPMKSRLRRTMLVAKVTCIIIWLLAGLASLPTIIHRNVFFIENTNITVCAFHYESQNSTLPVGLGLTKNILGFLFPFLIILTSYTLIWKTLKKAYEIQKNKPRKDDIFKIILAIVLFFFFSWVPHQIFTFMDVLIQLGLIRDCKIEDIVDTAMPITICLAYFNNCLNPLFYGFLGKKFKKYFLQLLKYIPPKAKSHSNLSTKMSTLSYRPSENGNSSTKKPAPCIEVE
Provide only the numeric value, understood in nM.

Lab note: measured IC50 of CSCc1nc2cccc(C(=O)O)c2n1Cc1ccc(-c2ccccc2-c2nn[nH]n2)cc1 was 150

Lab note: measured IC50 of CCCCc1nc(Cl)c(CO)n1Cc1ccc(-c2ccccc2-c2nn[nH]n2)cc1 [LOSARTAN POTASSIUM] was 150

Lab note: measured IC50 of O=C(O)c1cccc2nc(C3CC3)n(Cc3ccc(-c4ccccc4-c4nn[nH]n4)cc3)c12 was 84

Lab note: measured IC50 of CCOc1nc2cccc(C(=O)O)c2n1Cc1ccc(-c2ccccc2-c2nnn[nH]2)cc1 was 110
